Form field: log10(IC50) (one value per entry).
- Subject Of Test: α4β1 (Homo sapiens, UniProt P05556+P13612)
- Construct: Ramos Cell Adhesion Assay (α4β1 Mediated Adhesion/VCAM-1); endogenous in cells; host or cells: Ramos cells
- Experiment Notes: Ramos Cell Adhesion Assay (α4β1 Mediated Adhesion/VCAM-1)
- Assay type: cell-based
- Test Conditions: Ramos cell adhesion to hVCAM-1; read-out: α4β1 IC50
Measured Quantity: log10(IC50) (log10 of the value in µM)

* CC(C)Oc1cnn(C)c(=O)c1-c1ccc(C[C@H](NC(=O)c2c(Cl)cccc2Cl)C(=O)O)cc1 | -0.87
* COc1cnn(C)c(=O)c1-c1ccc(C[C@H](NC(=O)C(NS(=O)(=O)c2ccccc2[N+](=O)[O-])C(C)C)C(=O)O)cc1 (mixture of isomers) | -0.62
* Cn1ncc(OC2CCCCC2)c(-c2ccc(C[C@H](NC(=O)c3c(Cl)cccc3Cl)C(=O)O)cc2)c1=O | -0.82
* COc1cnn(C)c(=O)c1-c1ccc(C[C@H](NC(=O)c2c(Cl)cccc2Cl)C(=O)NCCO)cc1 | 0.58
* CCOc1cnn(C)c(=O)c1-c1ccc(C[C@H](NC(=O)c2c(Cl)cccc2Cl)C(=O)O)cc1 | -0.77
* COc1cnn(C)c(=O)c1-c1ccc(C[C@H](NC(=O)C23CCC(CC2)CN3C(=O)CCC2CCNCC2)C(=O)O)cc1 | -0.50
* Cn1ncc(Cl)c(-c2ccc(C[C@H](NC(=O)c3c(Cl)cccc3Cl)C(=O)O)cc2)c1=O | -0.31
* COc1cnn(C)c(=O)c1-c1ccc(CC(NC(=O)C(C(C)C)n2c(C)ccc2C)C(=O)O)cc1 (stereo not drawn) [Cpd 214] | 0.03

----------
- Subject Of Test: human α4β7 integrin (Homo sapiens, UniProt P13612+P26010)
- Construct: expressed in transfected cells; host or cells: K562 cells, stably transfected
- Sequence (P13612 34-1032): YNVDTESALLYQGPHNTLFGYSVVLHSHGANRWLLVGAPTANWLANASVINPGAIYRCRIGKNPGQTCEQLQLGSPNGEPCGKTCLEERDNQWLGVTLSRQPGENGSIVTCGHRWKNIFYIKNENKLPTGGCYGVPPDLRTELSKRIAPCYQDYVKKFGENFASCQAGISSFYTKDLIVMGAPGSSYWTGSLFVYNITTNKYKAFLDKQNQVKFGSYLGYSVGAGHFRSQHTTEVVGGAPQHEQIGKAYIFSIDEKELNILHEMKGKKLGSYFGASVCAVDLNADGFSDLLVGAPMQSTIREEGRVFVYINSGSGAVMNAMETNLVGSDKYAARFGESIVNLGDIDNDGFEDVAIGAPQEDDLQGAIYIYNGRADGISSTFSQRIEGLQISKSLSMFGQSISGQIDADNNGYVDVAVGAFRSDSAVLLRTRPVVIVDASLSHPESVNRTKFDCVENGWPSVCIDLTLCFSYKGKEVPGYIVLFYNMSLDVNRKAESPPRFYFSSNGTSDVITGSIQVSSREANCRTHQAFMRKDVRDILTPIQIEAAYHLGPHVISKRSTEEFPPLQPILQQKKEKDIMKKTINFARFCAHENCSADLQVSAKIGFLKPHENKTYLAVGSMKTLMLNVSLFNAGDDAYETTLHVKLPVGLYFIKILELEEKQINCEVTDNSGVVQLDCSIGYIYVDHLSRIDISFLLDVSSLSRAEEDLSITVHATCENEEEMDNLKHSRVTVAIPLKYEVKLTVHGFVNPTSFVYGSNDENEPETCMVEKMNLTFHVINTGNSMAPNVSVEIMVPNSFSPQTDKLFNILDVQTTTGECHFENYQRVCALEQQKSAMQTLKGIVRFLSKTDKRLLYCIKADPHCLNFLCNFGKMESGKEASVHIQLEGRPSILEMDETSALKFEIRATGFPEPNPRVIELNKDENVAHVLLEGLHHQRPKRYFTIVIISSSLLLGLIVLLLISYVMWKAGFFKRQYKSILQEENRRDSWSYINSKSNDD
- Sequence (P26010 20-798): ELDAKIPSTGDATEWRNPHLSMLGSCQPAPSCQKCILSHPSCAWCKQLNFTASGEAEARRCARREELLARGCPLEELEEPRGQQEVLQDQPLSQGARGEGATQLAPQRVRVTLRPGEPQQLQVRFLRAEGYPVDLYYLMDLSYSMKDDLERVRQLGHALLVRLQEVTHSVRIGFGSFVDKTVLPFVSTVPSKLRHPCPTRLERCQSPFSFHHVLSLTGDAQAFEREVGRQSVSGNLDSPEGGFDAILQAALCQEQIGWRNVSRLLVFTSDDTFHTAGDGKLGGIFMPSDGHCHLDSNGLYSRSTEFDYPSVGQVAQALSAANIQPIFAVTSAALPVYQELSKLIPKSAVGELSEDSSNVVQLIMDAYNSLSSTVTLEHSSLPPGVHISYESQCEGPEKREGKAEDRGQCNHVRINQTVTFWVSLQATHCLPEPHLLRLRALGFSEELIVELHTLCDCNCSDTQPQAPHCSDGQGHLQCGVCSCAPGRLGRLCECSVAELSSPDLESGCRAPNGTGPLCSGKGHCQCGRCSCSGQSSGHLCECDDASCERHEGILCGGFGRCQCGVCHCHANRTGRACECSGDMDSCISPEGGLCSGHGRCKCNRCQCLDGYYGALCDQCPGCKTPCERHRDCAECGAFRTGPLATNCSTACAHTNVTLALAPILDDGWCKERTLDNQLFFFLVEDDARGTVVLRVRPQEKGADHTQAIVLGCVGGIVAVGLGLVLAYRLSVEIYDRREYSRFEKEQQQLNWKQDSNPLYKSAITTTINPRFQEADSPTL
- Experiment Notes: α4β7-K562 Cell Adhesion Assay (α4β7 Mediated Adhesion/MAdCAM-1)
- Assay type: cell-based
- Test Conditions: α4β7-K562 cell adhesion to hMAdCAM-1; read-out: α4β7 IC50
- Description: α4β7-K562 Cell Adhesion Assay (α4β7 Mediated Adhesion/MAdCAM-1) M2 anti-FLAG Antibody Coated 96-well plates (Sigma) were coated for 1 hour at 4° C. with 2-8 μl/well recombinant FLAG-hMAdCAM-1 contained in 100 μL of Dulbecco's PBS, pH 7.4, with 1% BSA and 1 mM Mn ^+2 (PBS-BSA-Mn). Plates were washed once with PBS-BSA-Mn. Buffer was removed and compounds to be tested (50 μL) were added at 2× concentration. […]
Please use true for IC50 under 10 nM and false for everything else, ties included.

* O=C(N[C@@H](Cc1ccc(-c2c(OCC3CC3)cnn(CCO)c2=O)cc1)C(=O)O)c1c(Cl)cccc1Cl | true
* COc1cnn(CCO)c(=O)c1-c1ccc(C[C@H](NC(=O)OC(C)(C)C)C(=O)OCCO)cc1 | false
* COc1cnn(C)c(=O)c1-c1ccc(C[C@H](NC(=O)[C@@H]2C3CCC(CC3)N2S(=O)(=O)c2ccccc2)C(=O)O)cc1 | false
* Cn1ncc(N)c(-c2ccc(C[C@H](NC(=O)OC(C)(C)C)C(=O)O)cc2)c1=O | false
* COc1cnn(C)c(=O)c1-c1ccc(C[C@H](NC(=O)c2cccn(C)c2=O)C(=O)O)cc1 | false
* CS(=O)(=O)c1ccc(-c2cnn(CC3CC3)c(=O)c2-c2ccc(C[C@H](NC(=O)c3c(Cl)cccc3Cl)C(=O)O)cc2)cc1 | false
* COc1cnn(C)c(=O)c1-c1ccc(C[C@H](NC(=O)C(c2ccccc2)C(C)C)C(=O)O)cc1 (mixture of isomers) | false
* COc1cnn(CC(C)=O)c(=O)c1-c1ccc(C[C@H](NC(=O)c2c(Cl)cccc2Cl)C(=O)O)cc1 | true
* COc1cnn(C)c(=O)c1-c1ccc(C[C@H](NC(=O)C2CCNCC2)C(=O)O)cc1 | false
* COc1cnn(C)c(=O)c1-c1ccc(C[C@H](NC(=O)CN(C)C)C(=O)O)cc1 | false
* Cn1ncc(Cl)c(-c2ccc(C[C@H](NC(=O)c3c(Cl)cccc3Cl)C(=O)O)cc2)c1=O | false
* COc1ccc2cc(C(=O)N[C@@H](Cc3ccc(-c4c(OC)cnn(C)c4=O)cc3)C(=O)O)c(=O)oc2c1 | false
* CN[C@H](C(=O)N[C@@H](Cc1ccc(-c2c(OC)cnn(C)c2=O)cc1)C(=O)O)[C@@H](C)OCc1ccccc1 | false

Taken from patent US20050192279A1.
